System: Enterococcus faecalis
procedure_summary: Antibacterial activity against Enterococcus faecalis 10-5 after 18 to 24 hrs by NCCLS method
Assay type: functional
MIC values, listed per item

>  <smiles_repr>
COc1cc(CN2CCN(c3cc4c(cc3F)c(=O)c(C(=O)O)cn4C3CC3)CC2)c([N+](=O)[O-])cc1OC

>  <MIC>
16 µg/mL

$$$$
>  <smiles_repr>
COc1ccc(CN2CCN(c3cc4c(cc3F)c(=O)c(C(=O)O)cn4C3CC3)CC2)c(Cl)c1OC

>  <MIC>
8 µg/mL

$$$$
>  <smiles_repr>
O=C(O)c1cn(C2CC2)c2cc(N3CCN(Cc4ccccc4)CC3)c(F)cc2c1=O

>  <MIC>
16 µg/mL

$$$$
>  <smiles_repr>
COc1cc(CN2CCN(c3cc4c(cc3F)c(=O)c(C(=O)O)cn4C3CC3)CC2)cc(OC)c1

>  <MIC>
128 µg/mL

$$$$
